- Tested on: HL-60
- assay: Cytotoxicity against human HL60 cells
- Type: functional, cell-based
What IC50 was measured for each of the following?
Report only the number, with the unit µM understood.

Assay HL-60, sample "COc1ccc(C(=O)c2coc3c2C(=O)C(=O)C=C3)cc1" , IC50 read: 17

Assay HL-60, sample "COc1ccc(C(=O)c2coc3c2C(=O)C(=O)C(Br)=C3Br)cc1OC" , IC50 read: 42

Assay HL-60, sample "O=C(c1ccccc1)c1coc2ccc(O)cc12" , IC50 read: 100

Assay HL-60, sample "COc1ccc(C(=O)c2coc3c2C(=O)C(=O)C(Br)=C3)cc1" , IC50 read: 48

Assay HL-60, sample "COc1ccc(C(=O)c2coc3c(Br)cc(O)c(Br)c23)cc1" , IC50 read: 9

Assay HL-60, sample "COc1ccc(C(=O)c2coc3c(Br)cc(O)cc23)cc1" , IC50 read: 100

Assay HL-60, sample "COc1ccc(C(=O)c2coc3cc(Cl)c(O)c(Cl)c23)cc1" , IC50 read: 19

Assay HL-60, sample "COc1cc(C(=O)c2coc3c(Br)c(Br)c(O)cc23)cc(OC)c1OC" , IC50 read: 79

Assay HL-60, sample "O=C(c1ccccc1)c1coc2c(Cl)c(Cl)c(O)cc12" , IC50 read: 100

Assay HL-60, sample "COc1cc(C(=O)c2coc3c(Cl)c(Cl)c(O)cc23)cc(OC)c1OC" , IC50 read: 100

Assay HL-60, sample "COc1ccc(C(=O)c2coc3ccc(O)c(Br)c23)cc1" , IC50 read: 100

Assay HL-60, sample "COc1cc(C(=O)c2coc3c2C(=O)C(=O)C(Cl)=C3Cl)cc(OC)c1OC" , IC50 read: 36

Assay HL-60, sample "COc1ccc(C(=O)c2coc3ccc(O)cc23)cc1" , IC50 read: 100

Assay HL-60, sample "COc1ccc(C(=O)c2coc3c2C(=O)C(=O)C=C3Cl)cc1" , IC50 read: 17

Assay HL-60, sample "COc1ccc(C(=O)c2coc3c2C(=O)C(=O)C(Br)=C3Br)cc1" , IC50 read: 53

Assay HL-60, sample "COc1ccc(C(=O)c2coc3cc(Br)c(O)cc23)cc1" , IC50 read: 100

Assay HL-60, sample "COc1ccc(C(=O)c2coc3c(Cl)cc(O)c(Cl)c23)cc1" , IC50 read: 100

Assay HL-60, sample "COc1ccc(C(=O)c2coc3c(Cl)c(Cl)c(O)cc23)cc1OC" , IC50 read: 100

Assay HL-60, sample "COc1ccc(C(=O)c2coc3c(Br)c(Br)c(O)cc23)cc1" , IC50 read: 100

Assay HL-60, sample "COc1ccc(C(=O)c2coc3c2C(=O)C(=O)C=C3Br)cc1" , IC50 read: 10

Assay HL-60, sample "COc1ccc(C(=O)c2coc3c2C(=O)C(=O)C(Cl)=C3)cc1" , IC50 read: 32

Assay HL-60, sample "COc1ccc(C(=O)c2coc3c(Cl)c(Cl)c(O)cc23)cc1" , IC50 read: 100

Assay HL-60, sample "COc1ccc(C(=O)c2coc3c(Br)c(Br)c(O)cc23)cc1OC" , IC50 read: 57

====

What IC50 was measured for each of the following?
- Tested on: HL-60
- assay: Cytotoxicity against human vincristine-resistant HL60 cells
- Format: functional, cell-based
Report only the number, with the unit µM understood.

IC50 measured on "COc1ccc(C(=O)c2coc3c(Br)c(Br)c(O)cc23)cc1OC" = 100

IC50 measured on "COc1cc(C(=O)c2coc3c(Br)c(Br)c(O)cc23)cc(OC)c1OC" = 100

IC50 measured on "O=C(c1ccccc1)c1coc2c(Cl)c(Cl)c(O)cc12" = 100

IC50 measured on "COc1ccc(C(=O)c2coc3c(Br)cc(O)c(Br)c23)cc1" = 40

IC50 measured on "COc1ccc(C(=O)c2coc3c(Cl)c(Cl)c(O)cc23)cc1OC" = 100

IC50 measured on "COc1ccc(C(=O)c2coc3cc(Cl)c(O)c(Cl)c23)cc1" = 100

IC50 measured on "COc1ccc(C(=O)c2coc3c(Br)cc(O)cc23)cc1" = 100

IC50 measured on "COc1ccc(C(=O)c2coc3c2C(=O)C(=O)C=C3)cc1" = 27

IC50 measured on "COc1ccc(C(=O)c2coc3c(Cl)c(Cl)c(O)cc23)cc1" = 100

IC50 measured on "COc1cc(C(=O)c2coc3c2C(=O)C(=O)C(Cl)=C3Cl)cc(OC)c1OC" = 55

IC50 measured on "O=C(c1ccccc1)c1coc2ccc(O)cc12" = 100

IC50 measured on "COc1ccc(C(=O)c2coc3c2C(=O)C(=O)C(Br)=C3Br)cc1" = 100

IC50 measured on "COc1ccc(C(=O)c2coc3ccc(O)cc23)cc1" = 100

IC50 measured on "COc1ccc(C(=O)c2coc3ccc(O)c(Br)c23)cc1" = 100

IC50 measured on "COc1ccc(C(=O)c2coc3c(Cl)cc(O)c(Cl)c23)cc1" = 100

IC50 measured on "COc1ccc(C(=O)c2coc3c2C(=O)C(=O)C(Cl)=C3Cl)cc1OC" = 100

IC50 measured on "COc1ccc(C(=O)c2coc3c(Br)c(Br)c(O)cc23)cc1" = 100

IC50 measured on "COc1ccc(C(=O)c2coc3c2C(=O)C(=O)C(Br)=C3Br)cc1OC" = 64

IC50 measured on "COc1ccc(C(=O)c2coc3c2C(=O)C(=O)C=C3Br)cc1" = 38

IC50 measured on "COc1cc(C(=O)c2coc3c(Cl)c(Cl)c(O)cc23)cc(OC)c1OC" = 100

IC50 measured on "COc1ccc(C(=O)c2coc3cc(Br)c(O)cc23)cc1" = 100
